Where these numbers come from: patent US20210221899A1

Target: T1, canine NGF (canine, UniProt Q29074 110-229 (pig entry), limits assumed)
T1 construct: The protein was secreted from CHO cells and purified; also called cNGF; canine β-NGF
T1 chain: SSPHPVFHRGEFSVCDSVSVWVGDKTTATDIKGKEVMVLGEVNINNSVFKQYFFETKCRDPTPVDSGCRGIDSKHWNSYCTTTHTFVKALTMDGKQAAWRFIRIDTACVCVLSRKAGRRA
Experiment: SPR (Biacore T200), 100 nM mAb on NGF chip, similarity to parent mAb
This section presents binders with their documented Percent Similarity Score (KD on cN) values.
Numeric only. Scale: %

* can48L2VH_G55A (antibody, V domains shown, CDR scanning mutant of ZTS-842 (48L2)) VH: EVQLVESGGDLVKPGGSLRLSCVASGFTFSTYGINWVRQAPGKGLQWVAYISSGASSTYYADPVKGRFTISRDDAKNMLYLQMNSLRAEDTAIYYCAGSRYTYAYGGGYEFHFWGQGTLVTVSS VL: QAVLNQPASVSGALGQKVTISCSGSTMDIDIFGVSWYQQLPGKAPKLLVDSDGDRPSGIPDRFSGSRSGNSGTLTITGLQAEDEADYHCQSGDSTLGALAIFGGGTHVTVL | 99.3
* can48L2VL_S51A (antibody, V domains shown, CDR scanning mutant of ZTS-842 (48L2)) VH: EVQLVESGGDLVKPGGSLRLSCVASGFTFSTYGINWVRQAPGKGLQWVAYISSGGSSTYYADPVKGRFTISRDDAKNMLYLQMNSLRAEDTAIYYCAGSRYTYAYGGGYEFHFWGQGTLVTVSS VL: QAVLNQPASVSGALGQKVTISCSGSTMDIDIFGVSWYQQLPGKAPKLLVDADGDRPSGIPDRFSGSRSGNSGTLTITGLQAEDEADYHCQSGDSTLGALAIFGGGTHVTVL | 100
* can48L2VL_S91A (antibody, V domains shown, CDR scanning mutant of ZTS-842 (48L2)) VH: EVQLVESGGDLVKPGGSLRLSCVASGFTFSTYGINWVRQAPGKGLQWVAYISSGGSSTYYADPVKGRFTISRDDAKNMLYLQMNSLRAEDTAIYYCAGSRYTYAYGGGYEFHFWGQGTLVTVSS VL: QAVLNQPASVSGALGQKVTISCSGSTMDIDIFGVSWYQQLPGKAPKLLVDSDGDRPSGIPDRFSGSRSGNSGTLTITGLQAEDEADYHCQAGDSTLGALAIFGGGTHVTVL | 59.6
* can48L2VL_G53A (antibody, V domains shown, CDR scanning mutant of ZTS-842 (48L2)) VH: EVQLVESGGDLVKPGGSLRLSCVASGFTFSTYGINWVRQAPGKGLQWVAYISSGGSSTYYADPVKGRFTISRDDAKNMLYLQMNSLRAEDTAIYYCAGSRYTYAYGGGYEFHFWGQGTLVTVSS VL: QAVLNQPASVSGALGQKVTISCSGSTMDIDIFGVSWYQQLPGKAPKLLVDSDADRPSGIPDRFSGSRSGNSGTLTITGLQAEDEADYHCQSGDSTLGALAIFGGGTHVTVL | 100
* can9L12VL_D93A (antibody, V domains shown) VH: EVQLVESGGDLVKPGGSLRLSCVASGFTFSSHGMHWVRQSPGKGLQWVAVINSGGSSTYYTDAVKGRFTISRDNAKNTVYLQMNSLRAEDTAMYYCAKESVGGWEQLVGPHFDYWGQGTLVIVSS VL: QSVLTQPTSVSGSLGQRVTISCSGSTNNIGILGASWYQLFPGKAPKLLVYGNGNRPSGVPDRFSGADSGDSVTLTITGLQAEDEADYYCQSFATTLGAHVFGGGTHLTVL | 11
* can9L12VH_E105A (antibody, V domains shown) VH: EVQLVESGGDLVKPGGSLRLSCVASGFTFSSHGMHWVRQSPGKGLQWVAVINSGGSSTYYTDAVKGRFTISRDNAKNTVYLQMNSLRAEDTAMYYCAKESVGGWAQLVGPHFDYWGQGTLVIVSS VL: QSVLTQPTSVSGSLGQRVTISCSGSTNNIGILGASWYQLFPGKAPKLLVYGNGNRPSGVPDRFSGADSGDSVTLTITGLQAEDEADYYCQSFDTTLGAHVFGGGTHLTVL | 100
* can9L12VH_W104A (antibody, V domains shown) VH: EVQLVESGGDLVKPGGSLRLSCVASGFTFSSHGMHWVRQSPGKGLQWVAVINSGGSSTYYTDAVKGRFTISRDNAKNTVYLQMNSLRAEDTAMYYCAKESVGGAEQLVGPHFDYWGQGTLVIVSS VL: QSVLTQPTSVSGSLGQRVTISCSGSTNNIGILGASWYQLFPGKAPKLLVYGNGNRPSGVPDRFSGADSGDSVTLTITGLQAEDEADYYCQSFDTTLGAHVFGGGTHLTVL | 19.2
* can48L2VL_L99A (antibody, V domains shown, CDR scanning mutant of ZTS-842 (48L2)) VH: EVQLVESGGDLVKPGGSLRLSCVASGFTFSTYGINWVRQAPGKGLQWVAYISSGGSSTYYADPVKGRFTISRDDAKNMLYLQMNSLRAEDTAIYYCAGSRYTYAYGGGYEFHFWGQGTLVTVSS VL: QAVLNQPASVSGALGQKVTISCSGSTMDIDIFGVSWYQQLPGKAPKLLVDSDGDRPSGIPDRFSGSRSGNSGTLTITGLQAEDEADYHCQSGDSTLGAAAIFGGGTHVTVL | 96.8
* can48L2VH_S56A (antibody, V domains shown, CDR scanning mutant of ZTS-842 (48L2)) VH: EVQLVESGGDLVKPGGSLRLSCVASGFTFSTYGINWVRQAPGKGLQWVAYISSGGASTYYADPVKGRFTISRDDAKNMLYLQMNSLRAEDTAIYYCAGSRYTYAYGGGYEFHFWGQGTLVTVSS VL: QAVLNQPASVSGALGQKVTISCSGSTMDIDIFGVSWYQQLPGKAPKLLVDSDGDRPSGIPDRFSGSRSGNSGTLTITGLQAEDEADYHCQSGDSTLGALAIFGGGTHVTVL | 99.3

Let's switch to this binder now.
Query: Annotate the binder can9L12VL_G33A (antibody, V domains shown) VH: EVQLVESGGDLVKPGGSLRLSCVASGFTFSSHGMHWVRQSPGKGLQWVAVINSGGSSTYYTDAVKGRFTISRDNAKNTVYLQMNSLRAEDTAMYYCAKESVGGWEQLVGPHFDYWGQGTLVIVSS VL: QSVLTQPTSVSGSLGQRVTISCSGSTNNIGILAASWYQLFPGKAPKLLVYGNGNRPSGVPDRFSGADSGDSVTLTITGLQAEDEADYYCQSFDTTLGAHVFGGGTHLTVL with its measured Percent Similarity Score (KD on cN).
Response: 7.5
